test system: IL-17A-induced G-CSF production in human normal keratinocyte (NHK); test: NHK assay: IL-17A-induced G-CSF production in normal human keratinocytes; assay type: cell-based; details: Homo sapiens, Keratinocyte, 24 h, IL-17A 5 ng/mL, average if tested more than once
pIC50: −log10 of the molar value.
ENDPOINT LABEL: pIC50

Consider the worked cases shown below.
>  <COMPOUND>
C[C@@H](NC(=O)CCC(F)(F)F)c1ccc2nc([C@@H](NC(=O)c3cnn(C)c3C(F)(F)F)C3CCC(F)(F)CC3)[nH]c2c1

>  <MEASUREMENT TARGET>
IL-17A-induced G-CSF production in human normal keratinocyte (NHK)

>  <pIC50>
< 7.00

$$$$
>  <COMPOUND>
Cc1nonc1C(=O)N[C@H](c1nc2cc([C@@H](C)NC(=O)CCC(F)(F)F)ccc2[nH]1)[C@@H]1CCCC(F)(F)C1

>  <MEASUREMENT TARGET>
IL-17A-induced G-CSF production in human normal keratinocyte (NHK)

>  <pIC50>
< 7.00

$$$$
>  <COMPOUND>
CC(C)n1nccc1C(=O)N[C@@H](CC1(C(F)(F)F)CC1)c1nc2ccc([C@H](NC(=O)CC3CC(F)(F)C3)C3CC3)cc2[nH]1

>  <MEASUREMENT TARGET>
IL-17A-induced G-CSF production in human normal keratinocyte (NHK)

>  <pIC50>
7.00 to 7.30

$$$$

Report pIC50 for every entry below.
1. C[C@@H](NC(=O)CCC(F)(F)F)c1ccc2[nH]c([C@@H](NC(=O)[C@H]3C[C@@H]3C(F)(F)F)C3CCC(F)(F)CC3)nc2c1 (relative stereo)
2. C[C@@H](NC(=O)CCC(F)(F)F)c1ccc2[nH]c(C(CC(C)(C)C(F)(F)F)NC(=O)c3ncnn3CC3CC3)nc2c1 (single isomer, unassigned)

Response:
1: < 7.00; 2: < 7.00

Fill in: IL-17A-induced G-CSF production in human normal keratinocyte (NHK) pIC50 for CC(C)n1nccc1C(=O)N[C@@H](c1nc2ccc([C@H](NC(=O)CC3CC(F)(F)C3)C3CC3)cc2[nH]1)[C@@H]1CCCCO1 (relative stereo) = < 7.00

* * *

Target: IL-17A : IL-17RA binding (Homo sapiens, UniProt Q16552, K93Q)
Construct: Name: IL-17A-Flag
Sequence (Q16552 with tags, fused parts or gaps K93Q): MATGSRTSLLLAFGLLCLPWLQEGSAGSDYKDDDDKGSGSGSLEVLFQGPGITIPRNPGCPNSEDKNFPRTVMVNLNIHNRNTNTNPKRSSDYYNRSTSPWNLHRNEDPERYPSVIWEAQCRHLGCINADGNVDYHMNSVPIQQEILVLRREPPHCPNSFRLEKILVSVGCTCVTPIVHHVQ
Assay: IL-17A(FLAG-tagged):IL-17RA(His-tagged) binding disruption Eu-HTRF assay, Protocol 1
Conditions: FLAG-IL-17A 2.5 nM at 2x final concentration; average if tested more than once
Source text: An antibody directed against the FLAG tag of IL-17A (SEQ ID NO: 1) is labeled with the HTRF donor chromophore (Europium-cryptate). […] The fluorescence-resonance energy transfer (FRET) depends on the vicinity of the donor chromophore to the acceptor, and interruption of the binding between the IL-17A and IL-17RA causes the reduction/loss of FRET. Therefore, this assay allows to evaluate the compound effect on the binding IL-17A and IL-17RA by monitoring the fluorescence intensity of donor vs acceptor. […]
ENDPOINT LABEL: IC50

Consider the worked cases shown below.
>  <COMPOUND>
C[C@H](OCC(NC(=O)c1nonc1C1CC1)c1nc2ccc([C@H](NC(=O)CC3CC(F)(F)C3)C3CC3)cc2[nH]1)C(F)(F)F (single isomer, unassigned)

>  <MEASUREMENT TARGET>
IL-17A : IL-17RA binding (Homo sapiens, UniProt Q16552, K93Q)

>  <IC50>
< 50 nM

$$$$
>  <COMPOUND>
CC(CC(=O)N[C@H](C)c1ccc2nc([C@@H](NC(=O)c3cc(F)ccc3F)C3CCC(F)(F)CC3)[nH]c2c1)C(F)(F)F (single isomer, unassigned) [Example 136]

>  <MEASUREMENT TARGET>
IL-17A : IL-17RA binding (Homo sapiens, UniProt Q16552, K93Q)

>  <IC50>
> 100 nM

$$$$

We next turn to a different compound, shown below.
get_value(item= C[C@@H](NC(=O)CCC(F)(F)F)c1ccc2[nH]c([C@@H](NC(=O)c3ncn(CCC(F)(F)F)n3)C3CCC(F)(F)CC3)nc2c1 , readout=IC50) returns > 100 nM

* * *

Give pIC50 for every item shown.
Biological target: IL-17A : IL-17RA binding (Homo sapiens, UniProt Q16552, K93Q)
Construct: Name: IL-17A-Flag
Assay: IL-17A(FLAG-tagged):IL-17RA(His-tagged) binding disruption Eu-HTRF assay, Protocol 1
Conditions: FLAG-IL-17A 2.5 nM at 2x final concentration; average if tested more than once
Description: An antibody directed against the FLAG tag of IL-17A (SEQ ID NO: 1) is labeled with the HTRF donor chromophore (Europium-cryptate). […] The fluorescence-resonance energy transfer (FRET) depends on the vicinity of the donor chromophore to the acceptor, and interruption of the binding between the IL-17A and IL-17RA causes the reduction/loss of FRET. Therefore, this assay allows to evaluate the compound effect on the binding IL-17A and IL-17RA by monitoring the fluorescence intensity of donor vs acceptor. […]
pIC50: −log10 of the molar value.

Consider the worked cases shown below.
>  <COMPOUND>
C[C@@H](NC(=O)CCC(F)(F)F)c1ccc2[nH]c([C@@H](NC(=O)c3cn(CC45CC(C#N)(C4)C5)nn3)C3CCC(F)(F)CC3)nc2c1

>  <RESULT>
< 7.00

$$$$
>  <COMPOUND>
C[C@@H](NC(=O)CC1CC(F)(F)C1)c1ccc2[nH]c([C@@H](NC(=O)c3ccnn3C)C3CCC(F)(F)CC3)nc2c1

>  <RESULT>
< 7.00

$$$$
>  <COMPOUND>
CC(CC(=O)N[C@H](C)c1ccc2nc([C@@H](NC(=O)c3ccnn3CC(F)(F)F)C3CCC(F)(F)CC3)[nH]c2c1)C(F)(F)F (single isomer, unassigned) [Example 133]

>  <RESULT>
< 7.00

$$$$

Report pIC50 for every entry below.
1. CC(CC(=O)N[C@@H](c1ccc2nc([C@H](CC(C)(C)C(F)(F)F)NC(=O)c3nonc3C3CC3)[nH]c2c1)C1CC1)C(F)(F)F (single isomer, unassigned) [Example 181]
2. C[C@@H](NC(=O)CCC(F)(F)F)c1ccc2[nH]c([C@@H](NC(=O)c3cnn4c3CCC4)C3CCC(F)(F)CC3)nc2c1
3. CC(C)n1nccc1C(=O)N[C@H](c1nc2ccc([C@H](NC(=O)CC3CC(F)(F)C3)C3CC3)cc2[nH]1)[C@@H]1CCCCO1 (relative stereo)
4. CC(C)n1ncnc1C(=O)N[C@H](c1nc2cc([C@@H](C)NC(=O)CCC(F)(F)F)ccc2[nH]1)C1CCC(F)(F)CC1
5. C[C@@H](NC(=O)CCC(F)(F)F)c1ccc2[nH]c([C@@H](NC(=O)c3cnnn3CCC(F)(F)F)C3CCC(F)(F)CC3)nc2c1

Response:
1: > 7.30; 2: < 7.00; 3: 7.00 to 7.30; 4: < 7.00; 5: < 7.00

Report pIC50 for every entry below.
1. C[C@@H](NC(=O)CCC(F)(F)F)c1ccc2nc([C@@H](NC(=O)c3cnn(CCC(F)F)n3)C3CCC(F)(F)CC3)[nH]c2c1
2. Cc1c(C(=O)NC(CC(C)(C)C(F)(F)F)c2nc3cc([C@@H](C)NC(=O)CCC(F)(F)F)ccc3[nH]2)cnn1CC(F)(F)F (stereo in doubt)
3. Cc1c(C(=O)N[C@H](c2nc3cc([C@@H](C)NC(=O)CCC(F)(F)F)ccc3[nH]2)C2CCC(F)(F)CC2)cnn1CCC#N
4. Cc1nonc1C(=O)N[C@@H](CO[C@@H](C)C(F)(F)F)c1nc2ccc([C@H](NC(=O)CC3CC(F)(F)C3)C3CC3)cc2[nH]1 (relative stereo)

Response:
< 7.00
< 7.00
< 7.00
> 7.30

Report pIC50 for every entry below.
1. C[C@@H](NC(=O)CC(C)(C)C)c1ccc2[nH]c([C@@H](NC(=O)c3ccnn3C)C3CCC(F)(F)CC3)nc2c1
2. CC(CC(=O)N[C@@H](c1ccc2[nH]c([C@H](COC(C)(C)C(F)(F)F)NC(=O)c3nonc3C3CC3)nc2c1)C1CC1)C(F)F (single isomer, unassigned) [Example 176]
3. C[C@@H](NC(=O)CCC(F)(F)F)c1ccc2[nH]c([C@@H](NC(=O)c3cn(CC4CC4)nn3)C3CCC(F)(F)CC3)nc2c1
4. C[C@@H](NC(=O)CCC(F)(F)F)c1ccc2nc([C@@H](NC(=O)c3cnn(CC4CC(F)(F)C4)n3)C3CCC(F)(F)CC3)[nH]c2c1
5. C[C@@H](NC(=O)CCC(F)(F)F)c1ccc2nc([C@@H](NC(=O)c3cc(F)ccc3F)C3CCC(F)(F)CC3)[nH]c2c1
6. Cc1nonc1C(=O)N[C@@H](CO[C@H](C)C(F)(F)F)c1nc2ccc([C@H](NC(=O)CC3CC(F)(F)C3)C3CC3)cc2[nH]1 (relative stereo)
7. C[C@@H](NC(=O)CCC(F)(F)F)c1ccc2[nH]c([C@@H](NC(=O)c3cnn(CCC4CC4)n3)C3CCC(F)(F)CC3)nc2c1

Response:
1. < 7.00
2. > 7.30
3. < 7.00
4. < 7.00
5. < 7.00
6. < 7.00
7. 7.00 to 7.30

Report pIC50 for every entry below.
1. C[C@@H](NC(=O)CCC(F)(F)F)c1ccc2[nH]c([C@@H](NC(=O)c3cnnn3CCOC(F)F)C3CCC(F)(F)CC3)nc2c1
2. C[C@@H](NC(=O)CCC(F)(F)F)c1ccc2[nH]c([C@@H](NC(=O)c3cnn(CCCC(F)(F)F)n3)C3CCC(F)(F)CC3)nc2c1
3. C[C@@H](NC(=O)CCC(F)(F)F)c1ccc2nc([C@@H](NC(=O)c3cnnn3CC3CC(F)(F)C3)C3CCC(F)(F)CC3)[nH]c2c1
4. CC(CC(=O)N[C@H](C)c1ccc2nc([C@@H](NC(=O)c3ccnn3CCC(F)(F)F)C3CCC(F)(F)CC3)[nH]c2c1)C(F)(F)F (single isomer, unassigned) [Example 134]

Response:
< 7.00
< 7.00
< 7.00
< 7.00
